Target System: canine IL-4RA (construct not given) (canine)
Method: SPR, IL-4RA immobilised, periplasmic Fab
Quick list: Improvement over parental per entry.

| Binder | Unit Annotation | Improvement over parental |
| --- | --- | --- |
| FJ2246MP10G07 (Fab, V domains shown) VH: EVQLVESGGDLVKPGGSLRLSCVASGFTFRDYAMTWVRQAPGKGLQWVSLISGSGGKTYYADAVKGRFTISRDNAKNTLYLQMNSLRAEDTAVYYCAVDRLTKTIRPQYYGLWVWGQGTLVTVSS VL: DIVMTQTPLSLSVSPGETASISCRSSQSLLYSIGYNYLDWYLQKPGQSPQGLIYLGSKRASGVPDRFSGSGSGTDFTLRISRVEADDTGVYYCMQGLHSPLTFGQGTKLEIK | fold | 2.5 |
| FJ2246MP06D01 (Fab, V domains shown) VH: EVQLVESGGDLVKPGGSLRLSCVASGFPFRDYAMTWVRQAPGKGLQWVSLVNGSGSKTYYADAVKGRFTISRDNAKNTLYLQMNSLRAEDTAVYYCAVDRLTKTIRPQYYGLWVWGQGTLVTVSS VL: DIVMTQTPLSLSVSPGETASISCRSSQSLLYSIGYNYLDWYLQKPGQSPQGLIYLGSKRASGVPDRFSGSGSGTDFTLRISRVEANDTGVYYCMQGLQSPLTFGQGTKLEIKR | fold | 3.6 |
| FJ2246MP06F01 (Fab, V domains shown) VH: EVQLVESGGDLVKPGGSLRLSCVASGFTFRDYAMTWVRQAPGKGLQWVSLINGSGTKTYYADAVKGRFTISRDNAKNTLYLQMNSLRAEDTAVYYCAVDRLTKTIRPQYYGLWVWGQGTLVTVSS VL: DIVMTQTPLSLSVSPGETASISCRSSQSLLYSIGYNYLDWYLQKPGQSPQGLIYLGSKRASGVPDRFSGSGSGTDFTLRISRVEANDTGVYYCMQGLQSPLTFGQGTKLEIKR | fold | 2.5 |
| FJ2246MP06D12 (Fab, V domains shown) VH: EVQLVESGGDLVKPGGSLRLSCVASGFTFRDYAMTWVRQAPGKGLQWVSLINGNSGKTYYADAVKGRFTISRDNAKNTLYLQMNSLRAEDTAVYYCAVDRLTKTIRPQYYGLWVWGQGTLVTVSS VL: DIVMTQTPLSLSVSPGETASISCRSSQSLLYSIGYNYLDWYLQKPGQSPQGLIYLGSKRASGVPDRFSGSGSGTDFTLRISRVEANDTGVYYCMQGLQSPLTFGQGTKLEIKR | fold | 2.7 |
| FJ2246MP06H01 (Fab, V domains shown) VH: EVQLVESGGDLVKPGGSLRLSCVASGFTFRDYAMTWVRQAPGKGLQWVSLINGDASKTYYADAVKGRFTISRDNAKNTLYLQMNSLRAEDTAVYYCAVDRLTKTIRPQYYGLWVWGQGTLVTVSS VL: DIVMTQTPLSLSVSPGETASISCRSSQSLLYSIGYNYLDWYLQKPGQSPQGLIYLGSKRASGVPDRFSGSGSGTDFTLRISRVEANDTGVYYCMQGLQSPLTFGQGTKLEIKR | fold | 2.6 |
| FJ2246MP10H11 (Fab, V domains shown) VH: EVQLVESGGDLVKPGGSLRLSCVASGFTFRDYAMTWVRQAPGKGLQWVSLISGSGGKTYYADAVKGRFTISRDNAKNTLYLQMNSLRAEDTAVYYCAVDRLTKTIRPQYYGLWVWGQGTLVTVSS VL: DIVMTQTPLSLSVSPGETASISCRSSQSLLYSIGYNYLDWYLQKPGQSPQGLIYLGSKRASGVPDRFSGSGSGTDFTLRISRVEANDTGVYYCMQGLHSPLSFGQGTKLEIK | fold | 2.8 |
| FJ2246MP06C02 (Fab, V domains shown) VH: EVQLVESGGDLVKPGGSLRLSCVASGFTFRDYAMTWVRQAPGKGLQWVSLINGDGSKVYYADAVKGRFTISRDNAKNTLYLQMNSLRAEDTAVYYCAVDRLTKTIRPQYYGLWVWGQGTLVTVSS VL: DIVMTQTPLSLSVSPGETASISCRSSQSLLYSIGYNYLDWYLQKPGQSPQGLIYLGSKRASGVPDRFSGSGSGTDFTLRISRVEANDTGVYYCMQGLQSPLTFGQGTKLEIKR | fold | 2.2 |
| FJ2246MP10F04 (Fab, V domains shown) VH: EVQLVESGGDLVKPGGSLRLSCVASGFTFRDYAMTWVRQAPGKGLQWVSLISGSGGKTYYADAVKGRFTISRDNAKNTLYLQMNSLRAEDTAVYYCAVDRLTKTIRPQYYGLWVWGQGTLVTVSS VL: DIVMTQTPLSLSVSPGETASISCRSSKSLLYSIGYNYLDWYLQKPGQSPQGLIYLGSKRASGVPDRFSGSGSGTDFTLRISRVEADDTGVYYCMQGLHSPLTFGQGTKLEIK | fold | 3.1 |
| FJ2246MP10B07 (Fab, V domains shown) VH: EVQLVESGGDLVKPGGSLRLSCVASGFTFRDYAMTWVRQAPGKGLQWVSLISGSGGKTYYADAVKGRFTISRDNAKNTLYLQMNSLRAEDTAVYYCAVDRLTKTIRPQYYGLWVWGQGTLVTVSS VL: DIVMTQTPLSLSVSPGETASISCRSSQSLLYSIGYNYLDWYLQKPGQSPQGLIYLGSKRASGVPDRFSGSGSGTDFTLRISRVEAEDTGVYYCMQGLHSPLTFGQGTKLEIK | fold | 2.2 |
| FJ2246MP06D11 (Fab, V domains shown) VH: EVQLVESGGDLVKPGGSLRLSCVASGFTFRDYAMTWVRQAPGKGLQWVSLINGSGGKTYYADAVKGRFTISRDNAKNTLYLQMNSLRAEDTAVYYCAVDRLTKTIRPQYYGLWVWGQGTLVTVSS VL: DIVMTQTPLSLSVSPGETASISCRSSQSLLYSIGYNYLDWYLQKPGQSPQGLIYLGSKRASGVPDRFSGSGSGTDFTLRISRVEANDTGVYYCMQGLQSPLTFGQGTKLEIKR | fold | 2.1 |
